Biological target: T1, human EphA2 (human, UniProt P29317 25-534, limits assumed)
T1 construct: also called Eph receptor tyrosine kinase A2
T1 sequence (P29317 25-534 limits assumed): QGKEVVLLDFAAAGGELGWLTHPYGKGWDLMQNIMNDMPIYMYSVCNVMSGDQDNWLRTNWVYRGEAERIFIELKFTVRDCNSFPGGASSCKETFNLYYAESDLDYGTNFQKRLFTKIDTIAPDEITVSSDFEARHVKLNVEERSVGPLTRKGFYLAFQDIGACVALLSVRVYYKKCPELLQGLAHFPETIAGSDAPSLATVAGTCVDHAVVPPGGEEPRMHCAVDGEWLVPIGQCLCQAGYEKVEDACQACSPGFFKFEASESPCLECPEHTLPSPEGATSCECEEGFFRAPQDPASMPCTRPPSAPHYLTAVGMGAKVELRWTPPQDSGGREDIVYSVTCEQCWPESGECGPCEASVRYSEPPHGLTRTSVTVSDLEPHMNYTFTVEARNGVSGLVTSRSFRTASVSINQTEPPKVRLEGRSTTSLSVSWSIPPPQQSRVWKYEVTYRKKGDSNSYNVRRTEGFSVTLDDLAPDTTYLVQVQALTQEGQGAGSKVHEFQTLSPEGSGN
Assay: fluorescence polarisation competition with tracer BCY90, human EphA2, mean of 6
Starred links: 1 amine or outer side, 2 acyl side, 3 side chain; linkers in the order of their positions; H or OH if unused. Positions of bridges follow the written chain, without caps; N, C: chain ends. Non-standard residues stand in square brackets, D forms with d. No end group written: not given here. TATA = O=C(CC[*:1])N1CN(C(=O)CC[*:2])CN(C(=O)CC[*:3])C1; Ala(4-thiazolyl) = N[C@@H](Cc1cscn1)C(=O)O; Dip = N[C@H](C(=O)O)C(c1ccccc1)c1ccccc1; d1Nal = N[C@H](Cc1cccc2ccccc12)C(=O)O; Hyp = O=C(O)[C@@H]1C[C@@H](O)CN1; hArg = N=C(N)NCCCC[C@H](N)C(=O)O; 3Thi = N[C@@H](Cc1ccsc1)C(=O)O; Aad = N[C@@H](CCCC(=O)O)C(=O)O; His3Me = N3-methyl-L-histidine; Cba = N[C@@H](CC1CCC1)C(=O)O; dNle = CCCC[C@@H](N)C(=O)O; NMeA = CN[C@@H](C)C(=O)O; Nle = CCCC[C@H](N)C(=O)O
MEASURED ATTRIBUTE: Ki (nM)

Record excerpt, results attached:
A[hArg]DC[Hyp]LVNPLCL[Aad]P[dD]W[hArg]C-NH2 (linker 4-11-18 via TATA, Bicyclic peptide cyclised with TATA) [BCY13132] = 7.08
A[hArg]DC[Hyp]LVNPLCLEP[dD]WTC[dA]-NH2 (linker 4-11-18 via TATA, Bicyclic peptide cyclised with TATA) [BCY12857] = 16
[dA][dA]DC[Hyp]LVNPLCLEP[dD]WTC-NH2 (linker 4-11-18 via TATA, Bicyclic peptide cyclised with TATA) [BCY13127] = 14.9
A[hArg]DC[Hyp]LVNPLCL[Ala(4-thiazolyl)]P[dD]W[hArg]C-NH2 (linker 4-11-18 via TATA, Bicyclic peptide cyclised with TATA) [BCY13919] = 2.1
[NMeA][hArg]DC[Hyp]LVNPLCLHP[dD]W[hArg]C-NH2 (linker 4-11-18 via TATA, Bicyclic peptide cyclised with TATA) [BCY13121] = 1.49

(a) Ac-C[Hyp]LVNPLCL[Dip]P[dD]WTC[dK]-NH2 (linker 1-8-15 via TATA, Bicyclic peptide cyclised with TATA) [BCY13120]
(b) [dA]EDC[Hyp]LVNPLCLEP[dD]WTC-NH2 (linker 4-11-18 via TATA, Bicyclic peptide cyclised with TATA) [BCY13126]
(c) [d1Nal][hArg]DC[Hyp][Cba]VNPLCLEP[dA]WTC[dA]-NH2 (linker 4-11-18 via TATA, Bicyclic peptide cyclised with TATA) [BCY13124]
Task item: # ascending order, key=Ki List the labels according to the requested ordering.
Reply: a, c, b

(1) C[Hyp]LVNPLCL[Dip]P[dD]WTC-NH2 (linker 1-8-15 via TATA, Bicyclic peptide cyclised with TATA) [BCY12860]
(2) A[hArg]DC[Hyp]LVNPLCL[3Thi]P[dD]W[hArg]C-NH2 (linker 4-11-18 via TATA, Bicyclic peptide cyclised with TATA) [BCY13923]
Task item: Looking only at measured Ki, which entry is lower, 1 or 2 ? API: response body contains the label of the selected item.
Reply: 1

(a) A[hArg]DC[Hyp]LVNPLCL[Nle]P[dD]W[hArg]C-NH2 (linker 4-11-18 via TATA, Bicyclic peptide cyclised with TATA) [BCY13135]
(b) A[hArg]DC[Hyp]LVNPLCLHP[dD]WTC-NH2 (linker 4-11-18 via TATA, Bicyclic peptide cyclised with TATA) [BCY12855]
(c) A[hArg]DC[Hyp]LVNPLCLEP[dA]WTC-NH2 (linker 4-11-18 via TATA, Bicyclic peptide cyclised with TATA) [BCY12858]
Task item: Rank order required: Ki, descending. Field: ranking. Enter the labels in the order requested.
Reply: c, b, a

(1) A[hArg]DC[Hyp]LVNPLCL[His3Me]P[dD]W[hArg]C-NH2 (linker 4-11-18 via TATA, Bicyclic peptide cyclised with TATA) [BCY13917]
(2) [dA][hArg]DC[Hyp][Cba]VNPLCLEP[dA]WTC[dA]-NH2 (linker 4-11-18 via TATA, Bicyclic peptide cyclised with TATA) [BCY13123]
Task item: Looking at 1 and 2 , which one comes out lower in Ki terms? Answer with the label corresponding to your selection.
Reply: 1

(P) A[hArg]DC[Hyp][Aad]VNPLCLHP[dD]W[hArg]C-NH2 (linker 4-11-18 via TATA, Bicyclic peptide cyclised with TATA) [BCY13130]
(Q) Ac-C[Hyp]LVNPLCLHP[dD]W[hArg]CL[dH]G[dK]-NH2 (linker 1-8-15 via TATA, Bicyclic peptide cyclised with TATA) [BCY13125]
Task item: // which entry has the larger Ki value, P or Q ? Mark your selection by writing its label.
Reply: P
(P: 7.8 nM, Q: 1.83 nM)

(P) [dA][hArg]DC[Hyp][Cba]VNPLCLEP[dD]WTC[dA]-NH2 (linker 4-11-18 via TATA, Bicyclic peptide cyclised with TATA) [BCY12864]
(Q) A[hArg]DC[Hyp]LVNPLCLHP[dNle]W[hArg]C-NH2 (linker 4-11-18 via TATA, Bicyclic peptide cyclised with TATA) [BCY13134]
Task item: Compare P and Q and name the one whose reported Ki is smaller. Your answer should be the label attached to the chosen record.
Reply: Q
(Q: 1.16 nM, P: 9.29 nM)

Reference for the values: patent US20220257784A1
